# Test system: MOLM14
# Assay remarks: cell viability relative to vehicle control; higher = less cytotoxic;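 also: after 48 h exposure read by CellTiter-Glo luminescence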
# Cond: 10 µM; SRSF2 genotype: SRSF2 wt/wt
Counter-ions that a name gives are not always drawn.
Measured cell viability values are reported for all entries that follow.
Give the value in % but do not write % after it.

The examples below pair each entry with its known result.
{"columns": ["Compound", "Unit label", "cell viability"],
 "data": [
  ["COc1ccc(C(=O)N2CCCC2=O)cc1", "%", 109],
  ["CC[N+](C)(CC)CCOC(=O)C(O)(c1ccccc1)c1ccccc1 [Methylbenactyzine Bromide]", "%", 102],
  ["Cc1cccc(C)c1NC(=O)CN1CCCC1=O [Nefiracetam (Translon)]", "%", 100]
]}

## Task Give reported cell viability value for N[C@@H]1C[C@H]1c1ccccc1 [Tranylcypromine (2-PCPA) HCl]
## Result 97.5

## Task Give reported cell viability value for CC(C)OC(=O)[C@H](C)N[P@](=O)(CO[C@H](C)Cn1cnc2c(N)ncnc21)Oc1ccccc1 [Tenofovir Alafenamide (GS-7340)]
## Result 90.6

## Task Give reported cell viability value for CCCN1C[C@H](CSC)C[C@@H]2c3cccc4[nH]cc(c34)C[C@H]21 [Pergolide mesylate]
## Result 83.5

## Task Give reported cell viability value for CCCCC(C#N)(Cn1cncn1)c1ccc(Cl)cc1 (configuration not stated)
## Result 108

## Task Give reported cell viability value for `COC(=O)Nc1nc2ccccc2[nH]1`
## Result 49

## Task Give reported cell viability value for `CC1(C)C(=O)N(c2ccc(C#N)c(C(F)(F)F)c2)C(=O)N1CCCCO`
## Result 104

## Task Give reported cell viability value for `CC1=C2C(=O)[C@H]3[C@@H](CC=C4C[C@@H](O)CC[C@@]43C)[C@@H]2CC[C@]12O[C@@H]1C[C@H](C)CN[C@H]1[C@H]2C`
## Result 101

## Task Give reported cell viability value for Cc1c(N)nc(C(CC(N)=O)NCC(N)C(N)=O)nc1C(=O)NC(C(=O)NC(C)C(O)C(C)C(=O)NC(C(=O)NCCc1nc(-c2nc(C(=O)NCCC[S+](C)C)cs2)cs1)C(C)O)C(O[C@@H]1O[C@@H](CO)[C@@H](O)[C@H](O)[C@@H]1O[C@H]1O[C@H](CO)[C@@H](O)[C@H](OC(N)=O)[C@@H]1O)c1cnc[nH]1 (some centres not stated) [Bleomycin sulfate]
## Result 21.6

###

Measured cell viability values are reported for all entries that follow.
# Test system: MOLM14
# Assay remarks: cell viability relative to vehicle control; higher = less cytotoxic
# Cond: 10 µM; SRSF2 genotype: SRSF2 P95H/wt
Where a name gives a salt, the structure may show the parent alone.
Could you give the number and then its unit, please?

{"columns": ["Molecule", "cell viability"],
 "data": [
  ["CNCC(O)c1ccc(O)cc1 (configuration not stated) [Synephrine HCl]", "104%"]
]}

Switching to the query record.
## Task Give reported cell viability value for `C=C1CC[C@H]2[C@@H](C=C(C)C(=O)[C@@]3(O)C[C@H](C)[C@H](O)[C@@H]3[C@H]1O)C2(C)C`
## Result 97.1%

###

# System: K562
# Assay remarks: cell viability relative to vehicle control; higher = less cytotoxic
# Cond: 10 µM; SRSF2 genotype: SRSF2 wt/wt
Observed property: cell viability (%)
Give the value in % but do not write % after it.

{"columns": ["Compound", "cell viability, %"],
 "data": [
  ["CC(C)=CCCC(C)(O)C1CCC2(C)C1C(O)CC1C3(C)CCC(OC4OC(CO)C(O)C(O)C4O)C(C)(C)C3CCC12C [(20R)Ginsenoside Rh2]", 96],
  ["NCC(=O)O.[C-]#[O+].[C-]#[O+].[C-]#[O+].[Cl][Ru]", 96.2],
  ["C[C@]12CCC(=O)C[C@@H]1CC[C@@H]1[C@@H]2CC[C@]2(C)[C@@H](O)CC[C@@H]12 [Dihydrotestosterone (DHT)]", 97.7]
]}

## Task # return cell viability for `Cc1ccccc1-n1c(Cn2ncc3c(N)ncnc32)nc2cccc(C)c2c1=O` , test system: K562
## Result 91.3

###

# System: MOLM14
# Assay remarks: cell viability relative to vehicle control; higher = less cytotoxic
# Cond: 10 µM; SRSF2 genotype: SRSF2 wt/wt
Observed property: cell viability (%)
Give the value in % but do not write % after it.

{"columns": ["Compound", "System tested", "Unit label", "cell viability"],
 "data": [
  ["CC(C)(C)c1cc(C=C(C#N)C#N)cc(C(C)(C)C)c1O [Tyrphostin 9 (SF 6847)]", "MOLM14", "%", 12.2],
  ["CCCCCCC[n+]1ccc(-c2cc[n+](CCCCCCC)cc2)cc1 [DHBP dibromide]", "MOLM14", "%", 76.4],
  ["CC(C)(C)c1cc(C=C(C#N)C#N)cc(Br)c1O", "MOLM14", "%", 100],
  ["C[C@H]1CC(=O)C[C@@H]2CC[C@H]3[C@@H]4CC[C@H](O)[C@@]4(C)CC[C@@H]3[C@]21C", "MOLM14", "%", 84.7],
  ["C[C@H]1CC[C@]2(NC1)O[C@H]1C[C@H]3[C@@H]4CC[C@H]5C[C@@H](O)CC[C@]5(C)[C@H]4CC[C@]3(C)[C@H]1[C@@H]2C", "MOLM14", "%", 93.3]
]}

## Task Give reported cell viability value for `COC1=C[C@]23CCCN2CCc2cc4c(cc2[C@@H]3[C@@H]1O)OCO4`
## Result 96.5

## Task Give reported cell viability value for `COc1ccc(C=O)cc1`
## Result 104

## Task Give reported cell viability value for `C[C@H]1CCC/C=C/[C@@H]2C[C@H](O)C[C@H]2[C@H](O)/C=C/C(=O)O1`
## Result 4.1

###

# System: MOLM14
# Assay remarks: cell viability relative to vehicle control; higher = less cytotoxic
# Cond: 10 µM; SRSF2 genotype: SRSF2 P95H/wt
Observed property: cell viability (%)
Give the value in % but do not write % after it.

{"columns": ["Compound", "Observed property", "Unit label", "Test value"],
 "data": [
  ["COC1CC(OC2CCC3(C)C(CCC45OC46CCC(C(C)=O)C6(C)C(OC(C)=O)C(OC(=O)c4ccccc4)C35)C2)OC(C)C1OC1OC(C)C(O)C(OC)C1O (centres undefined) [Tenacissoside I]", "cell viability", "%", 91.9],
  ["CC1=C(O)C(=O)C=C2C1=CC=C1[C@@]2(C)CC[C@@]2(C)[C@@H]3C[C@](C)(C(=O)O)CC[C@]3(C)CC[C@]12C [Celastrol]", "cell viability", "%", 0.47],
  ["COc1ccc2c(c1OC)CC1c3c(cc4c(c3-2)OCO4)CCN1C (centres undefined) [Crebanine]", "cell viability", "%", 95.9]
]}

Switching to the query record.
## Task Give reported cell viability value for `Cc1cc(SCc2sc(-c3ccc(C(F)(F)F)c(F)c3)nc2C)ccc1OCC(=O)O`
## Result 99.7

###

# Test system: OCI-AML2
# Assay remarks: cell viability relative to vehicle control; higher = less cytotoxic
# Cond: 10 µM; SRSF2 genotype: P95H/wt
Measured cell viability values are reported for all entries that follow.
Give the value in % but do not write % after it.

## Task Give reported cell viability value for c1c2c(cc3c1OCO3)-c1cc3ccc4c(c3c[n+]1CC2)OCO4 [Coptisine chloride]
## Result 84.5

## Task Give reported cell viability value for C=C1CC[C@H]2[C@@H](C=C(C)C(=O)[C@@]3(O)C[C@H](C)[C@H](O)[C@@H]3[C@H]1O)C2(C)C [Lathyrol]
## Result 105

## Task Give reported cell viability value for `C[C@](O)(COc1ccc(C#N)cc1)C(=O)Nc1ccc(C#N)c(C(F)(F)F)c1`
## Result 99.4

## Task Give reported cell viability value for O=c1ccc2cc(O[C@@H]3O[C@H](CO)[C@@H](O)[C@H](O)[C@H]3O)c(O)cc2o1 [Aesculin (Esculin)]
## Result 95.1

###

Measured cell viability values are reported for all entries that follow.
# Tested on: K562
# Assay remarks: cell viability relative to vehicle control; higher = less cytotoxic
# Cond: 10 µM; SRSF2 genotype: SRSF2 wt/wt
Counter-ions that a name gives are not always drawn.
Give the value in % but do not write % after it.

The examples below pair each entry with its known result.
{"columns": ["Compound", "System tested", "cell viability, %"],
 "data": [
  ["CN1C(=O)CCS(=O)(=O)C1c1ccc(Cl)cc1 (stereo not drawn)", "K562", 93.5],
  ["CC(C)NCC(O)c1ccccc1Cl (stereo not drawn) [Clorprenaline HCL]", "K562", 104],
  ["C[C@]12C=CC(=O)C=C1CC[C@@H]1[C@@H]2CC[C@@]2(C)[C@H]1CC[C@]2(C)O", "K562", 102],
  ["C[C@]12CC[C@H](O)C[C@@H]1CC[C@@H]1[C@@H]2CC[C@]2(C)C(=O)CC[C@@H]12", "K562", 104],
  ["CC(=O)O[C@H]1CC[C@H]2[C@@H]3CCC4=CC(=O)CCC4=C3C=C[C@]12C [Trenbolone acetate]", "K562", 98.9],
  ["C[C@H]1CC[C@@H]2N(C1)C[C@H]1[C@@H]3C[C@H]4[C@@H](C[C@H](O)[C@H]5C[C@@H](O)CC[C@@]54C)[C@@H]3CC[C@@H]1[C@]2(C)O", "K562", 95.8],
  ["O=C1C2CCN(CC2)C1(CO)CO", "K562", 73.3]
]}

Switching to the query record.
## Task # return cell viability for O=C(/C=C/c1ccccc1)OC[C@H]1O[C@@H](O[C@@H]2OC=C[C@H]3[C@H](O)[C@@H]4O[C@]4(CO)[C@@H]23)[C@H](O)[C@@H](O)[C@@H]1O [Picroside I] , test system: K562
## Result 105
